TESTED_SYSTEM: SIRP-α human v1 (human) (UniProt P78324)
Sequence (P78324 31-149): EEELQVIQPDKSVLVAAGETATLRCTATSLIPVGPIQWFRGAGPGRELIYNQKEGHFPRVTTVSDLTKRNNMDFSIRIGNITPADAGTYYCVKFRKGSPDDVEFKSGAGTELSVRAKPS
PROCEDURE_DETAILS: SPR, antibody on GLC chip, SIRP as analyte
Items are presented alongside their recorded log10 of Kd.
Give log10 of Kd, with Kd taken in pM.

INSERT INTO assay_data (binder, result_number) VALUES
  ('Anti-SIRP-α antibody 136, light chain wt, heavy chain Mut (antibody, V domains shown) VH: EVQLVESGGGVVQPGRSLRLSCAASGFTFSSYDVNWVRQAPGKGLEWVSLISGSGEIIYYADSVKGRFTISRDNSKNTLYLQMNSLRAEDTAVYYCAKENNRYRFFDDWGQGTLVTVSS VL: ETVLTQSPGTLTLSPGERATLTCRASQSVYTYLAWYQEKPGQAPRLLIYGASSRATGIPDRFSGSGSGTEFTLTISSLQSEDFAVYYCQQYYDRPPLTFGGGTKVEIK', 2.75);

Query string: Quick one: log10 of Kd of Hum1/AB21_HC_Mutall (antibody, V domains shown) VH: EVQLVESGGGVVQPGGSLRLSCAASGFTFSSNAMSWVRQAPGKGLEWVAGISAGGSDTYYPASVKGRFTISRDNSKNTLYLQMNSLRAEDTAVYYCARETWNHLFDYWGQGTLVTVSS VL: SYELTQPPSVSVSPGQTARITCSGGSYSSYYYAWYQQKPGQAPVTLIYSDDKRPSNIPERFSGSSSGTTVTLTISGVQAEDEADYYCGGYDQSSYTNPFGGGTKLTVL ?
Result string: 0.72

Query string: Quick one: log10 of Kd of Anti-SIRP-α antibody 135, light chain Mut, heavy chain Mut (antibody, V domains shown) VH: EVQLVESGGGVVQPGGSLRLSCAASGFSFSIYAVSWVRQAPGKGLEWVSTIGADDTYYADSVKGRFTISRDNSKNTLYLQMNSLRAEDTAVYYCAKDSTVGWSGDFFDYWGQGTLVTVSS VL: EIVLTQSPATLSVSPGERVTLSCRASQNVRSDIAWYQQKPGQAPRLLIYAASSRDTGIPARFSGSGSGTDFTLTISSLQSEDFGVYYCQQYYDWPPFTFGGGTKVEIK ?
Result string: 2.28

Query string: Quick one: log10 of Kd of Anti-SIRP-α antibody 135, light chain wt, heavy chain Mut (antibody, V domains shown) VH: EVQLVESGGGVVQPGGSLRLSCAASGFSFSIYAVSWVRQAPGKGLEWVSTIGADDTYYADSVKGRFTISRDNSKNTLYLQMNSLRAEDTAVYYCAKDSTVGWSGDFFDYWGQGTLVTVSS VL: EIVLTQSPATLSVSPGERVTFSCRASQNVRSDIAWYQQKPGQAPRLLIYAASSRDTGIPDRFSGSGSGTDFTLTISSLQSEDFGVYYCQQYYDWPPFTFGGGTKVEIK ?
Result string: 2.26

Query string: Quick one: log10 of Kd of Anti-SIRP-α antibody 119, light chain Mut, heavy chain Mut_V34M (antibody, V domains shown) VH: EVQLLESGGGVVQPGGSLRLSCAASGFSFSNFAMTWVRQAPGKGLEWVSTIGSGDTYYADSVKGRFTISRDNSKNTLYLQMNSLRAEDTAVYYCAKDSTVSWSGDFFDYWGQGTLVTVSS VL: EIVLTQSPATLSVSPGERATLSCRASQNVKNDLAWYQQKPGQAPRLLIYAARIRETGIPARFSGSGSGTEFTLTISSLQSEDFAVYYCQQYYDWPPFTFGGGTKVEIK ?
Result string: 2.34
